The measurements presented in this section are drawn from paper PMC6858350.

- assay target: GluN1-1a S132A/GluN2B WT (Rattus norvegicus, UniProt P35439+Q00960, S132A)
- Sequence (Q00960 27-1482, other chains not shown): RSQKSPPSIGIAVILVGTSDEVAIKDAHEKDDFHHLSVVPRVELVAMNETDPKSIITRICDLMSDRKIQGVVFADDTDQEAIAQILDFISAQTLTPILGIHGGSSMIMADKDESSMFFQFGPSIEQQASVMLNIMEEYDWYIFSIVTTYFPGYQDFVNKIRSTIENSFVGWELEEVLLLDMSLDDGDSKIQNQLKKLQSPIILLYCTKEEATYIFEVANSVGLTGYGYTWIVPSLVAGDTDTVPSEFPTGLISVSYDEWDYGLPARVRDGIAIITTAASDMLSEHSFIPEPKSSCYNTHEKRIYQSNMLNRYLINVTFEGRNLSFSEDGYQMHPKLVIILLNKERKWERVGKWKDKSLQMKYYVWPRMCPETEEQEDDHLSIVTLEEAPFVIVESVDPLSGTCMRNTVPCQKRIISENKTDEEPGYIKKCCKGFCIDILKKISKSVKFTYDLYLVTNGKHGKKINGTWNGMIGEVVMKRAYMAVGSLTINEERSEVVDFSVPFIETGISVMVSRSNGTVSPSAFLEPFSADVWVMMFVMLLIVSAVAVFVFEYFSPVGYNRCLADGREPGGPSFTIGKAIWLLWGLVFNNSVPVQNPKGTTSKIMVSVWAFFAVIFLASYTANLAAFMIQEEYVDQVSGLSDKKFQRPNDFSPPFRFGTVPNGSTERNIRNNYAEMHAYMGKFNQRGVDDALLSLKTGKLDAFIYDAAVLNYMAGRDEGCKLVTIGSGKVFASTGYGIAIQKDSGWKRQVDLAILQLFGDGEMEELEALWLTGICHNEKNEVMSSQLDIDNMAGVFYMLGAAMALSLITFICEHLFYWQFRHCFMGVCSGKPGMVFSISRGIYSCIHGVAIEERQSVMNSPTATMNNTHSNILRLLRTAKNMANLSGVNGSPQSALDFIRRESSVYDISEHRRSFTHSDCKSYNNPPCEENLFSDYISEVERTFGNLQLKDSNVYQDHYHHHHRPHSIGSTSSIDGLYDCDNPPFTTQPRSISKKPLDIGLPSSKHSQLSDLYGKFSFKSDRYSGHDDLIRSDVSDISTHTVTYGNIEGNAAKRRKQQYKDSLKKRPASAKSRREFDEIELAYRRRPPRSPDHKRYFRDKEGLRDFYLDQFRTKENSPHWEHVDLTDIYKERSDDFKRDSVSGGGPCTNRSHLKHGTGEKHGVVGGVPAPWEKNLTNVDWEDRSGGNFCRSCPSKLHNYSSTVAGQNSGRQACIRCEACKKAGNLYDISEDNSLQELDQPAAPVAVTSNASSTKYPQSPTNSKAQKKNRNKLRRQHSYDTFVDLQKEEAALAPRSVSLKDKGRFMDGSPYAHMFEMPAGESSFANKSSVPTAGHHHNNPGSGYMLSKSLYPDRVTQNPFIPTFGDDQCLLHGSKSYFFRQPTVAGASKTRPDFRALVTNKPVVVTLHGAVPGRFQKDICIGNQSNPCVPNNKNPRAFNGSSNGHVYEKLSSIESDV
- method notes: cell-based
measurement kind: pIC50
pIC50 (log units): -log10 of the concentration in mol/L.

Would you please look over these solved cases?
Problem: Tell me reported pIC50 for Oc1ccc2c(c1)CCN(CCCCc1ccccc1)C[C@H]2O [compound (S)-1] , tested with GluN1-1a S132A/GluN2B WT (Rattus norvegicus, UniProt P35439+Q00960, S132A).
Solution: 6.16

Problem: Tell me reported pIC50 for Oc1ccc2c(c1)CCN(CCCCc1ccccc1)C[C@@H]2O [compound (R)-1] , tested with GluN1-1a S132A/GluN2B WT (Rattus norvegicus, UniProt P35439+Q00960, S132A).
Solution: 6.97

---
Problem: Tell me reported pIC50 for C[C@@H]1[C@H](O)c2ccc(O)cc2CCN1CCCCc1ccccc1 , tested with GluN1-1a S132A/GluN2B WT (Rattus norvegicus, UniProt P35439+Q00960, S132A).
Solution: 6.41

* * *

- assay target: GluN1-1a Y109S/GluN2B WT (Rattus norvegicus, UniProt P35439+Q00960, Y109S)
- Sequence (Q00960 27-1482, other chains not shown): as above
- test parameters: GluN1-1a Y109S, flexible A2
measurement kind: A2 ± SE

Problem: What value of A2 ± SE has been recorded for this entry: C[C@@H]1[C@H](O)c2ccc(O)cc2CCN1CCCCc1ccccc1
Solution: 96 ± 2%

---
Problem: What value of A2 ± SE has been recorded for this entry: CC(C(O)c1ccc(O)cc1)N1CCC(Cc2ccccc2)CC1 (stereo not shown) [ifenprodil, reference compound]
Solution: 74 ± 2%

Problem: What value of A2 ± SE has been recorded for this entry: Oc1ccc2c(c1)CCN(CCCCc1ccccc1)C[C@H]2O [compound (S)-1]
Solution: 79 ± 4%

Problem: What value of A2 ± SE has been recorded for this entry: Oc1ccc2c(c1)CCN(CCCCc1ccccc1)C[C@@H]2O [compound (R)-1]
Solution: 92 ± 2%

* * *

# reported IC50; entries follow
- assay target: GluN1-1a WT/GluN2B F114A (Rattus norvegicus, UniProt P35439+Q00960, F114A)
- Sequence (Q00960 27-1482 F114A, other chains not shown): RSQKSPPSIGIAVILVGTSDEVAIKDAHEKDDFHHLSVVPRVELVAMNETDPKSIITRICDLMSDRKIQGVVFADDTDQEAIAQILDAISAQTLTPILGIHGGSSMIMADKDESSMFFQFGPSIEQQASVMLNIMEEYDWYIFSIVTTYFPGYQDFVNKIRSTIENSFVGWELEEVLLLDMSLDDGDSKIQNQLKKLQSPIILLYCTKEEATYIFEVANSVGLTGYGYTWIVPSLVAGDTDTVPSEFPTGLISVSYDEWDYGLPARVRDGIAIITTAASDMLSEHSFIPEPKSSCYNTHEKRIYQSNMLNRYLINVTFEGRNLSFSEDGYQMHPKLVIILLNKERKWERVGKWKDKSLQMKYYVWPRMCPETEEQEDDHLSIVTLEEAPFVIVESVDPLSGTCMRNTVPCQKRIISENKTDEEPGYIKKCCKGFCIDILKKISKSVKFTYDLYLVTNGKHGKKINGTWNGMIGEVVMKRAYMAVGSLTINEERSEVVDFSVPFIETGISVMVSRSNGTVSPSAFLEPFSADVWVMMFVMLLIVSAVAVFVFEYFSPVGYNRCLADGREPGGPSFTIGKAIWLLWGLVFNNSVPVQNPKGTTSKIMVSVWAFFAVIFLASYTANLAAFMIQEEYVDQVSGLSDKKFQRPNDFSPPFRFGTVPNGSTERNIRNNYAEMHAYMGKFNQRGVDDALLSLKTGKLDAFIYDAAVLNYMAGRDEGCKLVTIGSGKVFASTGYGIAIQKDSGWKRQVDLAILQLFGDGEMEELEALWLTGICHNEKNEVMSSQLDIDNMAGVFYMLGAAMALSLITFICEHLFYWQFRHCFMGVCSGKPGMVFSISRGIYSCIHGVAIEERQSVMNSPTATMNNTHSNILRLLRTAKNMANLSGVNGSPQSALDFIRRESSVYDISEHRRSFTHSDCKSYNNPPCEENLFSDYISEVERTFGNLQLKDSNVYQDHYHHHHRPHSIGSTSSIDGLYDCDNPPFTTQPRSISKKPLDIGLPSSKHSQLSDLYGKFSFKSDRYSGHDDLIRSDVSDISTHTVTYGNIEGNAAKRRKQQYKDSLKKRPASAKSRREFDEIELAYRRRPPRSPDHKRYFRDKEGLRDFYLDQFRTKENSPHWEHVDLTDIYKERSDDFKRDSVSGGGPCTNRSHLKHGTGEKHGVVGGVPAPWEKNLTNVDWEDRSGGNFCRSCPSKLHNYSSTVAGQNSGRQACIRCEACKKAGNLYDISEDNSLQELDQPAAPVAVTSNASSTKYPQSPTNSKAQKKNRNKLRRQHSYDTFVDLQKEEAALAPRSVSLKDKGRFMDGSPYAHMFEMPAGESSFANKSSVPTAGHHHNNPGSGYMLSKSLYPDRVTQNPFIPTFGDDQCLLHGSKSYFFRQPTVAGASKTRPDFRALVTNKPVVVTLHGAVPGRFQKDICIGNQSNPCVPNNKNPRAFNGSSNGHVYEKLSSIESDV
- method notes: cell-based
Give a bare numeral; the unit µM is implied.

Would you please look over these solved cases?
Problem: Tell me reported IC50 for C[C@@H]1[C@H](O)c2ccc(O)cc2CCN1CCCCc1ccccc1 [compound 2] , tested with GluN1-1a WT/GluN2B F114A (Rattus norvegicus, UniProt P35439+Q00960, F114A).
Solution: 0.667

Problem: Tell me reported IC50 for Oc1ccc2c(c1)CCN(CCCCc1ccccc1)C[C@@H]2O [compound (R)-1] , tested with GluN1-1a WT/GluN2B F114A (Rattus norvegicus, UniProt P35439+Q00960, F114A).
Solution: 4.08

---
Problem: Tell me reported IC50 for Oc1ccc2c(c1)CCN(CCCCc1ccccc1)C[C@H]2O [compound (S)-1] , tested with GluN1-1a WT/GluN2B F114A (Rattus norvegicus, UniProt P35439+Q00960, F114A).
Solution: 38.9

* * *

- assay target: GluN1-1a F113S/GluN2B WT (Rattus norvegicus, UniProt P35439+Q00960, F113S)
- test parameters: GluN1-1a F113S, flexible A2
# reported A2 ± SE; entries follow
Give a bare numeral; the unit % is implied.

Problem: Tell me reported A2 ± SE for Oc1ccc2c(c1)CCN(CCCCc1ccccc1)C[C@H]2O [compound (S)-1] , tested with GluN1-1a F113S/GluN2B WT (Rattus norvegicus, UniProt P35439+Q00960, F113S).
Solution: 89

Problem: Tell me reported A2 ± SE for Oc1ccc2c(c1)CCN(CCCCc1ccccc1)C[C@@H]2O [compound (R)-1] , tested with GluN1-1a F113S/GluN2B WT (Rattus norvegicus, UniProt P35439+Q00960, F113S).
Solution: 77

Problem: Tell me reported A2 ± SE for C[C@@H]1[C@H](O)c2ccc(O)cc2CCN1CCCCc1ccccc1 [compound 2] , tested with GluN1-1a F113S/GluN2B WT (Rattus norvegicus, UniProt P35439+Q00960, F113S).
Solution: 100

Next item in the queue.
Problem: Tell me reported A2 ± SE for CC(C(O)c1ccc(O)cc1)N1CCC(Cc2ccccc2)CC1 (stereo not shown) [ifenprodil, reference compound] , tested with GluN1-1a F113S/GluN2B WT (Rattus norvegicus, UniProt P35439+Q00960, F113S).
Solution: 72
